Entries and their viability values follow.
# Protocol: H69AR cell proliferation blockers – human, duplicate replicates, primary screen (AID 580);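 further: 100% = mean luminescence of untreated wells and 0% = no signal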
# Stated Conditions: H69AR lung tumor cells viability, ATP luminescence, 72 h; at 10 µM; stronger effect = lower value

Compound	Units Text	viability
Nc1nc(Nc2ccc(Cl)cc2Cl)nc(C(F)(F)F)n1	%	89.8
COc1ccc(S(=O)(=O)NCc2ccco2)cc1-c1nnc2c3ccccc3c(C)nn12	%	83.9
Cc1cccc(NC(=O)c2oc3c(c2C)C(=O)CC(C)(C)C3)n1	%	92.3
S=c1[nH]ncn1-c1ccccn1	%	93.9
CSc1cccc(NC(=O)CN(C)S(=O)(=O)c2ccccc2)c1	%	95.1
Cc1ccc(NCc2nnc(SCC(=O)NCc3ccco3)n2CC2CCCO2)cc1Cl (stereo not drawn)	%	88.5
Cc1cc(C)c(C(=O)CSc2nnc(-c3ccccc3Br)o2)cc1C	%	73.1
COC(=O)c1ccc2c(c1)C(=O)N(C1CCCCC1)C2=O	%	104
O=C(O)C1C2CCC(O2)C1C(=O)Nc1cccc(F)c1 (stereo not drawn)	%	90.8
CC(=O)Nc1ccc(NC(=O)c2ccccc2F)cc1	%	108
COc1ccc(C)cc1NC(=O)CCN1CCCC1	%	97.5
O=S(=O)(Cc1ccc(Cl)cc1)Nc1ccc2c(c1)OCO2	%	104
Cc1ccccc1NC(=O)c1ccccc1	%	99.6
O=C(CN1C(=O)COc2ccccc21)NCCCN1CCN(Cc2ccccc2)CC1	%	87.3
O=C(c1nc2n(n1)C(c1ccc(Cl)cc1)C=C(c1ccccc1)N2)N1CCOCC1 (stereo not drawn)	%	91.9
Oc1ccc(Nc2nc(-c3ccc(O)cc3)cs2)cc1	%	58.4
CC(=O)N1CCN(S(=O)(=O)c2ccc(S(=O)(=O)NCC(C)C)cc2)CC1	%	88.5
O=C(NC1CC2CCC1C2)c1ccc(CN2CCOCC2)cc1 (stereo not drawn)	%	96.9
C=CCC(Nc1ccco1)c1ccccc1 (stereo not drawn)	%	102
CC(=O)Nc1cccc(-c2nnc(-c3ccccc3)o2)c1	%	92.6
CC1CCN(C(=O)CSc2nnc(-c3cccnc3)n2C2CCCCC2)CC1	%	97.5
CSc1n[nH]c(NCc2ccccc2)n1	%	96.8
Cc1cc(NCCCn2ccnc2)n2c(nc3ccccc32)c1C#N	%	100
CCOC(=O)C1CCN(C(=O)CN(Cc2ccccc2)S(C)(=O)=O)CC1	%	92.1
CN(C(=O)c1c(Cl)nc2sccn12)C1CCCCC1	%	93.9
OCCNc1ncnc2c1c(-c1ccccc1)c(-c1ccccc1)n2Cc1ccco1	%	72.4
Nc1nc(CN2CCOCC2)cs1	%	100
CCOC(=O)c1sc(NC(=O)CSc2nc3c(cc2C#N)CCC3)c(C#N)c1C	%	91.1

---

# Protocol: MRP1 drug-resistance reversers in H69AR cells – cell-based, doxorubicin co-treatment, pilot screen (AID 601)
# Stated Conditions: H69AR cells + 2 uM doxorubicin, CellTiter-Glo, 72 h; measured here: viability with 2 uM doxorubicin; at 10 µM; stronger effect = lower value
Quantity Name: viability (%)

Compound	Experimental Result
O=C(NCc1nc2ccccc2[nH]1)c1ccco1	83.7
CC(C)(C)C1CCc2onc(C(=O)Nc3cnn(Cc4ccc(F)cc4)c3)c2C1 (stereo not drawn)	50.6
CN(c1ccccc1)S(=O)(=O)c1cc(C(=O)N2CCN(c3ccccn3)CC2)ccc1Cl	78.4
